assay: Plasma half life was observed after intravenous administration in rat; type: ADME, organism-based
value_type: half-life
Record the result as a number with its unit.

// Input: `Nc1nc(N)c2cc(COC(=O)c3ccc(C(=O)N[C@@H](CCC(=O)O)C(=O)O)cc3)ccc2n1` . Output its half-life only.
1 h

* * *

assay: Volume of distribution at steady state was observed after intravenous administration in rat; format: ADME, organism-based; settings: in vivo, read-out: Vss
value_type: Vd (L/kg)
Give the value, in units of L/kg, as a plain number.

// Input: `Nc1nc(N)c2cc(COC(=O)c3ccc(C(=O)N[C@@H](CCC(=O)O)C(=O)O)cc3)ccc2n1` . Output its Vd only.
0.42

* * *

tested on: Rattus norvegicus; test: Mean peak plasma concentration was observed after intravenous administration in rat; type: ADME, organism-based; parameters: route intravenous; details: in vivo
value_type: Cmax (µM)
Give the value, in units of µM, as a plain number.

// Input: `Nc1nc(N)c2cc(COC(=O)c3ccc(C(=O)N[C@@H](CCC(=O)O)C(=O)O)cc3)ccc2n1` . Output its Cmax only.
9.17

* * *

assay: plasma half life was observed after intravenous administration in rat; assay type: ADME, organism-based
value_type: half-life (min)
Give the value, in units of min, as a plain number.

// Input: CN(Cc1cnc2nc(N)nc(N)c2n1)c1ccc(C(=O)N[C@@H](CCC(=O)O)C(=O)O)cc1 [METHOTREXATE] . Output its half-life only.
54

* * *

test system: Rattus norvegicus; assay: mean peak plasma concentration was observed after oral administration in rat; format: ADME, organism-based; parameters: route oral; conditions: in vivo
value_type: Cmax (nM)
Give the value, in units of nM, as a plain number.

Please respond with reported Cmax (system Rattus norvegicus) for CN(Cc1cnc2nc(N)nc(N)c2n1)c1ccc(C(=O)N[C@@H](CCC(=O)O)C(=O)O)cc1 [METHOTREXATE] .
266

* * *

assay: volume of distribution at steady state was observed after intravenous administration in rat; assay type: ADME, organism-based; settings: in vivo, read-out: Vss
value_type: Vd (L/kg)
Give the value, in units of L/kg, as a plain number.

// Input: CN(Cc1cnc2nc(N)nc(N)c2n1)c1ccc(C(=O)N[C@@H](CCC(=O)O)C(=O)O)cc1 [METHOTREXATE] . Output its Vd only.
0.36
